# Test system: human mAChR M4 (Homo sapiens)
# Experiment summary: mAChR M4 cell-based functional assay: calcium mobilization (Fluo-4, FDSS), potentiation of EC20 acetylcholine response in hM4-Gqi5 CHO-K1 cells
# Test parameters: potentiation of EC20 acetylcholine response, calcium mobilization, human M4
In plain terms, low EC50, meaning strictly below 500 nM, gives satisfied, and everything else gives not satisfied.

Worked set:
Cc1c(N2CCc3ncc(-c4ccc(C(F)(F)F)nc4)cc3C2)nn2c(=O)ccnc2c1C; not satisfied
Cc1cc2nc(C(=O)NC3CN(CC(F)(F)F)C3)cc(=O)n2nc1N1CCc2ncc(C(F)(F)F)cc2C1; satisfied
Cc1ccc(-c2cnc3c(c2)CN(c2nn4c(=O)cc(C(=O)NC5(C#N)CC5)nc4cc2C)CC3)cn1; satisfied
Cc1cc(F)c(F)cc1-c1cnc2c(c1)CN(c1nn3c(=O)ccnc3c(C)c1C)CC2; not satisfied
Cc1cc2nccc(=O)n2nc1N1CCc2ncc(-c3cnc(F)c(Cl)c3)cc2C1; not satisfied

Turning now to a further compound:
Input line: is_below(EC50, 500 nM) for "Cc1ccc(-c2cnc3c(c2)CN(c2nn4c(=O)c(Br)cnc4cc2C)CC3)cn1" ?
Output line: satisfied

---

# Test system: human mAChR M4 (Homo sapiens, UniProt P08173)
# Construct: expressed in transfected cells; host or cells: CHO-K1 (American Type Culture Collection), stably expressing hM4 and Gqi5
# Sequence (P08173 whole entry): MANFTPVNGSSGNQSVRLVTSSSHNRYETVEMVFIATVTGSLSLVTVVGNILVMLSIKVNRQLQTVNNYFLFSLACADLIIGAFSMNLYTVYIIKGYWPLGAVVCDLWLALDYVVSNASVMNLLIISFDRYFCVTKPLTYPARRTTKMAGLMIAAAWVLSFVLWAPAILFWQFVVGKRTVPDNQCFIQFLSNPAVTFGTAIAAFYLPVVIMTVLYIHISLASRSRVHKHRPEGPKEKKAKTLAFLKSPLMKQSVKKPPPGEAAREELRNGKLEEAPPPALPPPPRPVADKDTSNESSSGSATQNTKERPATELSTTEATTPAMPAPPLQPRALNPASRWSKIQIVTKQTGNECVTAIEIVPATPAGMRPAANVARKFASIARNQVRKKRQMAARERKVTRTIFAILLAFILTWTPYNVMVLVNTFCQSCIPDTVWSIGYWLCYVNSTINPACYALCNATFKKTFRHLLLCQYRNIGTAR
# Experiment summary: mAChR M4 cell-based functional assay: calcium mobilization (Fluo-4, FDSS), potentiation of EC20 acetylcholine response in hM4-Gqi5 CHO-K1 cells
# Test parameters: CHO-K1, % ACh maximum at 30 μM; human M4
Below, each of the compounds is paired with its reported Emax at 30 µM value.
Response body: numeric value in %, unit text excluded.

Cc1ccc(-c2cnc3c(c2)CN(c2nn4c(=O)cc(C(F)F)nc4c(C)c2C)CC3)cn1; 103
Cc1cc(=O)n2nc(N3CCc4ncc(-c5ccc(F)cc5F)cc4C3)c(C)c(C)c2n1; 81
COC1CN(C(=O)c2cc(=O)n3nc(N4CCc5ncc(C(F)(F)F)cc5C4)c(C)cc3n2)C1; 103

Input line: Return reported Emax at 30 µM; argument: "Cc1cc2nccc(=O)n2nc1N1CCc2ncc(Nc3cccc(F)c3C)cc2C1"
Output line: 84

Input line: And then "Cc1cc2nccc(=O)n2nc1N1CCc2ncc(-c3cccnc3C(C)(C)O)cc2C1" , what is it?
Output line: 48

Input line: Query "Cc1c(N2CCc3ncc(C(F)(F)F)cc3C2)nn2c(=O)cc(C(F)F)nc2c1C" next
Output line: 93

Input line: Next up: "Cc1cc2ncc(Cl)c(=O)n2nc1N1CCc2ncc(-c3cnn(C4CC4)c3)cc2C1"
Output line: 80

Input line: Also "Cc1cncc(-c2cnc3c(c2)CN(c2nn4c(=O)ccnc4cc2C)CC3)c1" , if possible.
Output line: 70

Input line: Please give the result for "Cc1c(N2CCc3ncc(-c4cncc(F)c4)cc3C2)nn2c(=O)cc(C(F)F)nc2c1C" too.
Output line: 95

Input line: What do we get for "Cc1cc2nccc(=O)n2nc1N1CCc2ncc(Nc3cccnc3F)cc2C1" ?
Output line: 103

Input line: Input "Cc1cc2nccc(=O)n2nc1N1CCc2ncc(-c3cccnc3F)cc2C1"
Output line: 88

Input line: Next compound: "[2H]C1([2H])Cc2ncc(Nc3ccncc3F)cc2C([2H])([2H])N1c1nn2c(=O)ccnc2cc1C"
Output line: 94

Input line: Note, next up: "CCc1ccncc1-c1cnc2c(c1)CN(c1nn3c(=O)ccnc3c(C)c1C)CC2"
Output line: 63

Input line: Another compound to look at: "Cc1cc2nccc(=O)n2nc1N1CCc2ncc(Nc3cccc(F)c3)cc2C1"
Output line: 99

Input line: Subsequent entry: "COCc1cc(=O)n2nc(N3CCc4ncc(-c5cnccc5OC)cc4C3)c(C)cc2n1"
Output line: 83

---

# Test system: human mAChR M4 (Homo sapiens, UniProt P08173)
# Construct: expressed in transfected cells; host or cells: CHO-K1 (American Type Culture Collection), stably expressing hM4 and Gqi5
# Experiment summary: mAChR M4 cell-based functional assay: calcium mobilization (Fluo-4, FDSS), potentiation of EC20 acetylcholine response in hM4-Gqi5 CHO-K1 cells
# Test parameters: CHO-K1, % ACh maximum at 30 μM; human M4
Measurement label: Emax at 30 µM (%)
Give just the number in %; leave the unit off.

Cc1c(N2CCc3ncc(N4CCC(C)(C)C4=O)cc3C2)nn2c(=O)ccnc2c1C; 86

Input line: Report Emax at 30 µM for "Cc1cc(=O)n2nc(N3CCc4ncc(N5CCOc6ncccc65)cc4C3)c(C)cc2n1" please.
Output line: 98

Input line: Consider next the compound "Cc1cc(OC(F)F)ncc1-c1cnc2c(c1)CN(c1nn3c(=O)ccnc3cc1C)CC2" in the same way.
Output line: 70

Input line: Same question, "Cc1ccc(-c2cnc3c(c2)CN(c2nn4c(=O)cc(C(=O)NC5(C#N)CC5)nc4cc2C)CC3)cn1" this time
Output line: 79

Input line: Please answer likewise for "COCc1cc(=O)n2nc(N3CCc4ncc(-c5ccc(F)c(F)c5)cc4C3)c(C)cc2n1"
Output line: 68

Input line: Now give it for "Cc1cc2nccc(=O)n2nc1N1CCc2ncc(Nc3cc(F)cc(F)c3)cc2C1" too.
Output line: 88

---

# Test system: human mAChR M4 (Homo sapiens, UniProt P08173)
# Experiment summary: mAChR M4 cell-based functional assay: calcium mobilization (Fluo-4, FDSS), potentiation of EC20 acetylcholine response in hM4-Gqi5 CHO-K1 cells
# Test parameters: potentiation of EC20 acetylcholine response, calcium mobilization, human M4
Quick list: pEC50 per entry.
Units for pEC50: none; it is -log10 of a concentration expressed in mol/L.

# annotated cases, reported pEC50 shown
Cc1cc2ncc(C3=CCCC3)c(=O)n2nc1N1CCc2ncc(C(F)(F)F)cc2C1; 6.23
COc1c(F)cc(-c2cnc3c(c2)CN(c2nn4c(=O)ccnc4cc2C)CC3)c(C)c1F; 6.88
COCc1cc(=O)n2nc(N3CCc4ncc(-c5sccc5OC)cc4C3)c(C)cc2n1; 6.53
COc1ccncc1-c1cnc2c(c1)CN(c1nn3c(=O)cc(C)nc3cc1C)CC2; 7.05
Cc1cc2nccc(=O)n2nc1N1CCc2ncc(NC(=O)C3CCOCC3)cc2C1; 5.66

Next, consider the following compound.
Input line: Looking for the measured pEC50 of "Cc1cc2nccc(=O)n2nc1N1CCc2ncc(Nc3ccc(F)cc3)cc2C1" , can you help?
Output line: 7.10

---

Reported Emax at 30 µM values for a set of compounds
# Test system: human mAChR M4 (Homo sapiens)
# Construct: expressed in transfected cells; host or cells: CHO-K1 (American Type Culture Collection), stably expressing hM4 and Gqi5
# Experiment summary: mAChR M4 cell-based functional assay: calcium mobilization (Fluo-4, FDSS), potentiation of EC20 acetylcholine response in hM4-Gqi5 CHO-K1 cells
# Test parameters: CHO-K1, % ACh maximum at 30 μM; human M4
Field: numeric (%). Do not append units.

Cc1cc2nccc(=O)n2nc1N1CCc2ncc(Nc3cc(Cl)cnc3F)cc2C1; 92

Input line: If you can, please state the reported Emax at 30 µM value of "Cc1cc(=O)n2nc(N3CCc4ncc(-c5cncc(F)c5)cc4C3)c(C)c(C)c2n1" .
Output line: 88

Input line: Next compound: "Cc1cc(=O)n2nc(N3CCc4ncc(-c5cc(F)c(F)cc5F)cc4C3)c(C)c(C)c2n1"
Output line: 84

Input line: What about this compound? "Cc1cc(=O)n2nc(N3CCc4ncc(-c5cnn6ccccc56)cc4C3)c(C)cc2n1"
Output line: 84

---

# Test system: human mAChR M4 (Homo sapiens)
# Experiment summary: mAChR M4 cell-based functional assay: calcium mobilization (Fluo-4, FDSS), potentiation of EC20 acetylcholine response in hM4-Gqi5 CHO-K1 cells
# Test parameters: potentiation of EC20 acetylcholine response, calcium mobilization, human M4
Measurement label: pEC50
Expect pEC50 as a plain number equal to -log10 of the molar concentration.

Use the examples below as a reference point.
Cc1cc2nccc(=O)n2nc1N1CCc2ncc(Nc3cccnc3)cc2C1; 6.76
Cc1ccc(-c2cnc3c(c2)CN(c2nn4c(=O)cc(C(C)C)nc4c(C)c2C)CC3)cn1; 6.80
Cc1cc(=O)n2nc(N3CCc4ncc(-c5ccccc5C)cc4C3)c(C)c(C)c2n1; 5.76

Next compound, pEC50 to be filled in.
Input line: What measured pEC50 goes with "Cc1c(N2CCc3ncc(-c4ccc(N5CCCCC5)nc4)cc3C2)nn2c(=O)ccnc2c1C" ?
Output line: 6.40

---

EC50 values, listed per item
# Test system: human mAChR M4 (Homo sapiens)
# Experiment summary: mAChR M4 cell-based functional assay: calcium mobilization (Fluo-4, FDSS), potentiation of EC20 acetylcholine response in hM4-Gqi5 CHO-K1 cells
# Test parameters: potentiation of EC20 acetylcholine response, calcium mobilization, human M4
Unit nM implied. Number only.

Reference set, count: 2
COCc1cc(=O)n2nc(N3CCc4ncc(-c5cnn(C)c5C)cc4C3)c(C)cc2n1; 284
COCc1cc(=O)n2nc(N3CCc4ncc(-c5cnn(C6CC6)c5)cc4C3)c(C)c(C)c2n1; 96

Input line: // lookup EC50 for "Cc1cc2nccc(=O)n2nc1N1CCc2ncc(-c3cccc(C#N)c3C)cc2C1"
Output line: 1010
